// data source = PubChem BioAssay (EPA / NIEHS)

# PROCEDURE TEXT: BSK_3C_Proliferation: Cell Proliferation Assessment in the BioMAP Diversity Plus: 3C Assay (AID 2283006)
# EXPERIMENTAL CONDITIONS: primary human endothelial cells (HUVEC)
Calls of active or inactive are those of the source. How the source made its calls: active means hit-call score of the fitted dose curve at least 0.9, where 1 is the maximum; inactive means score below 0.9.
Your answer must be one of the following: T for active, F for inactive

COMPOUND	LABEL VALUE
C#CCOC(=O)/C=C(C)/C=C/CC(C)CCCC(C)C (configuration not stated)	T
Nc1ccc(N)cc1	F

Dear all, I need the recorded test outcome for [Cl][Sn]([c]1ccccc1)([c]1ccccc1)[c]1ccccc1 , thank you.
T

----------
# PROCEDURE TEXT: ATG_TCF_b_cat_CIS: Attagene CIS-FACTORIAL HepG2 Assay for human T-Cell-Factor with beta-catenin (TCF/b-cat) (AID 2282965)
# EXPERIMENTAL CONDITIONS: HepG2 TCF/beta-catenin cis-reporter transcription, actives raise or lower the signal
Calls of active or inactive are those of the source. How the source made its calls: active means hit-call score of the fitted dose curve at least 0.9, where 1 is the maximum; inactive means score below 0.9.
Your answer must be one of the following: YES (active), NO (inactive)

Dear all, I need the recorded test outcome for CC(=Cc1ccccc1)[N+](=O)[O-] , thank you.
NO

Dear all, I need the recorded test outcome for Clc1cc(C(Cl)(Cl)Cl)cnc1Cl , thank you.
YES

Dear all, I need the recorded test outcome for COc1ccccc1N , thank you.
NO

Dear all, I need the recorded test outcome for Cc1cc(Cl)ccc1N , thank you.
NO

Dear all, I need the recorded test outcome for CC(c1ccc(O)cc1)c1ccc(O)cc1 , thank you.
NO

Dear all, I need the recorded test outcome for Cc1cc(C)cc(C)c1 , thank you.
NO

Dear all, I need the recorded test outcome for CC(C)[N+](=O)[O-] , thank you.
NO
